B1: library; numbered along this chain (parent)
chain: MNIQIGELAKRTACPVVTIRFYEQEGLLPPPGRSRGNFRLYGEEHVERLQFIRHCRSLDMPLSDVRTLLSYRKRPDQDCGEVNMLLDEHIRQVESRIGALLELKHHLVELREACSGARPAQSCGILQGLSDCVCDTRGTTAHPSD

# Variants of: B1
# Measurement description: sfGFP reporter fluorescence (15 h) (µM FITC); higher = stronger transcriptional activation
# Test conditions: library round: Round 0; ligand: 1 µM Pb
# sfGFP reporter fluorescence >= 0.07 gives true (1), anything below gives false (0)

[[record]]
sequence_string = "MNIQIGELAKRTACPVVTIRFYEQEGLLPPPGRSRGNFRLYGEEHVERLQFIRHCRSLDMPLSDVRTLLSYRKRPDQDCGEVAMLLDEHIRQVESRIGALLELKHHLVELREACSGARPAQSCGILQGLSDCVCDTRGTTAHPSD [N83A]"
discrete_label = "true (1)"

[[record]]
sequence_string = "MNIQIGELAKRTACPVVTIRFYEQEGLLPPPGRSRGNFRLSGEEHVERLQFIRHCRSLDMPLSDVRTLLSYRKRPDQDCGEVNMLLDEHIRQVESRIGALLELKHHLVELREACSGARPAQSCGILQGLSDCVCDTRGTTAHPSD [Y41S]"
discrete_label = "false (0)"

[[record]]
sequence_string = "MNIQIGELAKRTACRVVTIRFYEQEGLLPPPGRSRGNFRLYGEEHVERLQFIRHCRSLDMPLSDVRTLLSYRKRPDQDCGEVNMLLDEHIRQVESRIGALLELKHHLVELREACSGARPAQSCGILQGLSDCVCDTRGTTAHPSD [P15R]"
discrete_label = "true (1)"

[[record]]
sequence_string = "MNIQIGELAKRTACPVVTIRFYEQEGLLPPPGRSRGNFRLYGTEHVERLQFIRHCRSLDMPLSDVRTLLSYRKRPDQDCGEVNMLLDEHIRQVESRIGALLELKHHLVELREACSGARPAQSCGILQGLSDCVCDTRGTTAHPSD [E43T]"
discrete_label = "true (1)"

[[record]]
sequence_string = "MNIQIGELAKRTACPVVTIRFYEQEGRLPPPGRSRGNFRLYGEEHVERLQFIRHCRSLDMPLSDVRTLLSYRKRPDQDCGEVNMLLDEHIRQVESRIGALLELKHHLVELREACSGARPAQSCGILQGLSDCVCDTRGTTAHPSD [L27R]"
discrete_label = "false (0)"

[[record]]
sequence_string = "MNIQIGELAKRTACPVVTIRFYEQEGLLPPPGRSRGNFRLYGEEHVERLQFIRHCRSLDMPLSDVRTLLSYRKRPDQDCGEVNMLLDEHIRQVESRIGALLELKHHLVELREACSGARPAQSCGILQGHSDCVCDTRGTTAHPSD [L129H]"
discrete_label = "false (0)"

[[record]]
sequence_string = "MNIQIGELAKRTACPVVTIRFYEQEGLQPPPGRSRGNFRLYGEEHVERLQFIRHCRSLDMPLSDVRTLLSYRKRPDQDCGEVNMLLDEHIRQVESRIGALLELKHHLVELREACSGARPAQSCGILQGLSDCVCDTRGTTAHPSD [L28Q]"
discrete_label = "false (0)"

[[record]]
sequence_string = "MNIQIVELAKRTACPVVTIRFYEQEGLLPPPGRSRGNFRLYGEEHVERLQFIRHCRSLDMPLSDVRTLLSYRKRPDQDCGEVNMLLDEHIRQVESRIGALLELKHHLVELREACSGARPAQSCGILQGLSDCVCDTRGTTAHPSD [G6V]"
discrete_label = "false (0)"

[[record]]
sequence_string = "MNIQIGELAKRTACPLVTIRFYEQEGLLPPPGRSRGNFRLYGEEHVERLQFIRHCRSLDMPLSDVRTLLSYRKRPDQDCGEVNMLLDEHIRQVESRIGALLELKHHLVELREACSGARPAQSCGILQGLSDCVCDTRGTTAHPSD [V16L]"
discrete_label = "true (1)"

[[record]]
sequence_string = "MNIQIGELAKRTACPVVTIRFYEQEGLLPPPGRSRGNFRLYGEEHVERLQFIRHCRSLDMPLSDVRTLLSYRKRPDQDCGEVNMLLDEHIRQVESRIGALLELKHHLVEKREACSGARPAQSCGILQGLSDCVCDTRGTTAHPSD [L110K]"
discrete_label = "false (0)"

